# Tested on: P388
# method: Compound at a optimum dose level of 0.5 mg/kg was evaluated in vivo against Murine P388/0 […] cells (1 X 10E6 ip implant)
# Assay type: organism-based
# Set-up: dose 0.5 mg/kg, route intraperitoneal
# condition-summary: mouse
experimental-readout: T/C (%)
Unit % implied. Number only.

Cc1c(CNc2ccc(C(=O)NC(CCC(=O)O)C(=O)O)cc2)cnc2nc(N)nc(N)c12 (stereo unspecified) ... 151
CCOC(=O)CCC(NC(=O)c1ccc(NCc2cnc3nc(N)nc(N)c3c2)cc1)C(=O)OCC (stereo unspecified) ... 151
Nc1nc(N)c2cc(CNc3ccc(C(=O)NC(CCC(=O)O)C(=O)O)cc3)cnc2n1 (stereo unspecified) ... 146

*Q* Notebook: pull reported T/C for P388, entry CN(Cc1cnc2nc(N)nc(N)c2c1)c1ccc(C(=O)NC(CCC(=O)O)C(=O)O)cc1 (stereo unspecified)
*A* 166

*Q* Notebook: pull reported T/C for P388, entry CN(Cc1cnc2nc(N)nc(N)c2n1)c1ccc(C(=O)N[C@@H](CCC(=O)O)C(=O)O)cc1 [METHOTREXATE]
*A* 182

*Q* Notebook: pull reported T/C for P388, entry Cc1c(CN(C)c2ccc(C(=O)NC(CCC(=O)O)C(=O)O)cc2)cnc2nc(N)nc(N)c12 (stereo unspecified)
*A* 182
